- System: NCI-H322M lung
- EXPERIMENT SUMMARY: NCI-60 one-dose screen, 48 h (100 = growth as untreated, 0 = no growth, -100 = all killed)
- DETAILS: 10 µM unless noted
The panel holds about 83,000 compounds, 20% with a hit somewhere; the sample as a whole holds those more often.
Please mark label 1 if the recorded growth is equal to or greater than 90%, and label 0 if it falls below.

• CCN(CC)CCCNc1cc(OC)c(OC)c2cccnc12 = label 0
• c1ccc(-c2nc3ccccc3[nH]2)c(OCCCCCOc2ccccc2-c2nc3ccccc3[nH]2)c1 = label 1
• Cn1cc(-c2nc3c(F)cc4[nH]ncc4c3c3c2CCCC3)c(C(F)(F)F)n1 = label 0
• C=CCN=c1sc(-c2ccc3ccccc3c2)cn1NC(=O)c1cc2ccc1CCc1ccc(cc1)CC2 = label 1
• Cc1cccc(NC(=O)Cn2cc(CN3CCN(c4ccnc5cc(Cl)ccc45)CC3)nn2)c1 = label 1
• CNC(=O)c1cc(Oc2ccc3c(c2)sc2nc(-c4ccc(NC(=O)[C@@H](NC(=O)OC)C(C)C)cc4)cn23)ccn1 = label 1
• CCOC(=O)/C(=C(/C)NCC(C)C)c1cc(O)c(O)c2c(C)cc(=O)[nH]c12 = label 0
• O=C(NCc1ccc(Cn2c(=O)sn(-c3ccccc3)c2=O)cc1)OCc1ccc2cccc(O)c2n1 = label 0
• CN(C)CCCNC(=O)c1cncnc1Nc1ccc2c(ccn2Cc2cccc(F)c2)c1 = label 1
